Animal with Lesion: recorded values
Tested on: gastric mucosa
measurement-protocol: Gastric Hemorrhage Lesion Formation Assay (GHLF) / gastric irritation
Assay type: in vivo, rat (Sprague-Dawley, male)
condition-details: 30 mg/kg, oral, fasted, 4 h; animals with at least one lesion/group

Consider the reported Animal with Lesion for these compounds:
COc1cc(CC(=O)O)n(C)c1C(=O)c1ccc(SC)cc1; 2/6
COc1cc(CC(=O)O)n(C)c1C(=O)c1ccc(C)cc1; 0/6
COc1cc(CC(=O)O)n(C)c1C(=O)c1ccc(C(F)(F)F)cc1; 0/6

What does the record list as Animal with Lesion for COc1cc(CC(=O)O)n(C)c1C(=O)c1ccc(Cl)cc1 ?
0/5

Using the record for CSc1ccc(C(=O)c2c(C)cc(CC(=O)OCCNC(C)=O)n2C)n1C , report its Animal with Lesion.
0/6

Which measured Animal with Lesion value corresponds to CSc1ccc(C(=O)c2c(C)cc(CC(=O)O)n2C)n1C [drawing 24] ?
0/6
